Tested on: HepG2
protocol.details: Cytotoxicity against human HepG2 cells assessed as reduction in cell growth incubated for 72 hrs by MTT assay
Type: functional, cell-based
test.parameters: HepG2, 72 h
reported.metric: IC50 (nM)

>>> reported_result("COC(=O)[C@@]1(C)[C@@H]2CC[C@]3(C)[C@H](CC=C4[C@@H]5[C@@H](C)[C@H](C)CC[C@]5(C(=O)Nc5ccccc5)CC[C@]43C)[C@@]2(C)C[C@@H](OC)[C@@H]1OC(C)=O")
1430

###

Test system: MCF7
protocol.details: Cytotoxicity against human MCF7 cells assessed as reduction in cell growth incubated for 72 hrs by MTT assay
Format: functional, cell-based
test.parameters: MCF7, 72 h
pIC50: −log10 of the molar value.
reported.metric: pIC50

>>> reported_result("COC(=O)[C@@]1(C)[C@@H]2CC[C@]3(C)[C@H](CC=C4[C@@H]5[C@@H](C)[C@H](C)CC[C@]5(C(=O)Nc5ccccc5)CC[C@]43C)[C@@]2(C)C[C@@H](OC)[C@@H]1OC(C)=O")
5.40

FYI, the data here is from ChEMBL document CHEMBL6134814.
